tested target: T1, human TGFβ2, mature receptor-binding domain (human, UniProt P09858 303-414 (pig entry), The mature TGFβ2 is a disulfide-linked homodimer of this 112-residue chain. The 4A11 epitope spans both monomers (p-1207).)
T1 construct: Peprotech; also called TGFb2
T1 sequence: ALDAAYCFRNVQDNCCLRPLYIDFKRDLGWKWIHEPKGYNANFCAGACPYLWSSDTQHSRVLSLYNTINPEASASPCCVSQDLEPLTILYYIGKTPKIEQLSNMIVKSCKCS
protocol description: SPR
Here, each record is paired with measured Kd data.
Express it in pM; write the number only.

>  <binder>
1D11 (antibody, V domains shown, also called pan-TGFβ antibody 1D11) VH: QVQLQQSGPELVRPGASVKLSCKASGYIFITYWMNWVKQRPGQGLEWIGQIFPASGSTNYNEMFEGKATLTVDTSSSTAYMQLSSLTSEDSAVYYCARGDGNYALDAMDYWGQGTSVTVSS VL: DIVLTQSPASLAVSLGQRATISCRASESVDSYGNSFMHWYQQKSGQPPKLLIYLASNLESGVPARFSGSGSRTDFTLTIDPVEADDAATYYCQQNNEDPLTFGAGTKLEIK

>  <Kd [pM]>
9

$$$$

Exercise: Given 2A10 (antibody, V domains shown, anti-TGFβ3; also called rat 2A10; r2A10) VH: EVQLVESGGGLVQPKGSLKLSCAASGFDFNSYGMSWVRQAPGKGLDLVADIVSKTYNYTTYYSDSVKDRFTISRDDSQSMVYLQMDNLKTEDTALYYCTVAPGGSFDYWGQGVMVTVSS VL: DIVLTQSPALAVSLGQRATISCRASQSVSISRFNLMHWYQHKPGQQPKLLIYRASNLASGIPARFSGSGSGTDFTLTINPVQADDLATYYCQHSRESPWTFGGGTKLEIK , state its recorded Kd.
Solution: 46
